System: PfSIP2 AP2 domain 1 (GST-tagged)
assay_explanation: gcPBM binding intensity (ln(normalized median fluorescence intensity)); higher = stronger DNA binding
The full ranking holds about 25,000 sequences; the median of “ln(normalized median fluorescence intensity)” is about 7.1, and the highest 2% start at about 10. The sample holds the highest values, similar sequences and a random draw of the others, so the mix is not that of the screen.
property_label: gcPBM binding intensity (ln)
Give only the figure.

biosequence | target_entity | gcPBM binding intensity (ln)
ATTTATTTTATATGTTGTACAAACATTTTAAAACAT [XGTACX_site6919] | PfSIP2 AP2 domain 1 (GST-tagged) | 6.95

Value of gcPBM binding intensity (ln) reported for the sequence AAAAATAAAGGGTGTGCACACAAAAATATATATATA [CACACA_site1727] is 9.1

response.value for ATTATATAACAAAATAGTACATATATTTATTACATC [XGTACX_site336] (field: gcPBM binding intensity (ln)) = 6.99
